Tested on: Liver
Test: Metabolic stability in mouse liver microsomes assessed as compound remaining
Type: ADME, Microsome
metric.name: Stability (%)
Just the number please, in %, no unit attached.

// Input: Cc1cc(CC(NC(=O)N2CCC(N3Cc4ccccc4NC3=O)CC2)c2nccn2Cc2cccnc2)cc2cn[nH]c12 (racemic) . Output its Stability only.
2

// Input: Cc1cc(CC(NC(=O)N2CCC(N3Cc4ccccc4NC3=O)CC2)c2nccn2Cc2ccccn2)cc2cn[nH]c12 (racemic) . Output its Stability only.
0

// Input: Cc1cc(CC(NC(=O)N2CCC(N3Cc4ccccc4NC3=O)CC2)c2nccn2Cc2cc(F)cc(F)c2)cc2cn[nH]c12 (racemic) . Output its Stability only.
66

// Input: Cc1cc(CC(NC(=O)N2CCC(N3Cc4ccccc4NC3=O)CC2)c2nc(Br)cn2Cc2cc(F)cc(F)c2)cc2cn[nH]c12 (racemic) . Output its Stability only.
93

// Input: Cc1cc(CC(OC(=O)N2CCC(c3cc4ccccc4[nH]c3=O)CC2)c2ncc3n2CCN(C2CCCCC2)C3)cc2cn[nH]c12 (racemic) . Output its Stability only.
21

// Input: Cc1cc(CC(NC(=O)N2CCC(N3Cc4ccccc4NC3=O)CC2)c2ncc(C)n2Cc2cccc(F)c2)cc2cn[nH]c12 (racemic) . Output its Stability only.
85

// Input: Cc1cc(CC(OC(=O)N2CCC(c3cc4ccccc4[nH]c3=O)CC2)c2ncc3n2CCN(Cc2ccccc2)C3)cc2cn[nH]c12 (racemic) . Output its Stability only.
9

// Input: Cc1cc(Cn2ccnc2C(Cc2cc(C)c3[nH]ncc3c2)NC(=O)N2CCC(N3Cc4ccccc4NC3=O)CC2)cc(Cl)n1 (racemic) . Output its Stability only.
0

// Input: Cc1cc(Cn2ccnc2C(Cc2cc(C)c3[nH]ncc3c2)NC(=O)N2CCC(N3Cc4ccccc4NC3=O)CC2)ccn1 (racemic) . Output its Stability only.
1

* * *

Biological target: Calcitonin gene-related peptide type 1 receptor (Homo sapiens, UniProt O60894+Q16602)
Sequence (Q16602 whole entry, one chain of several): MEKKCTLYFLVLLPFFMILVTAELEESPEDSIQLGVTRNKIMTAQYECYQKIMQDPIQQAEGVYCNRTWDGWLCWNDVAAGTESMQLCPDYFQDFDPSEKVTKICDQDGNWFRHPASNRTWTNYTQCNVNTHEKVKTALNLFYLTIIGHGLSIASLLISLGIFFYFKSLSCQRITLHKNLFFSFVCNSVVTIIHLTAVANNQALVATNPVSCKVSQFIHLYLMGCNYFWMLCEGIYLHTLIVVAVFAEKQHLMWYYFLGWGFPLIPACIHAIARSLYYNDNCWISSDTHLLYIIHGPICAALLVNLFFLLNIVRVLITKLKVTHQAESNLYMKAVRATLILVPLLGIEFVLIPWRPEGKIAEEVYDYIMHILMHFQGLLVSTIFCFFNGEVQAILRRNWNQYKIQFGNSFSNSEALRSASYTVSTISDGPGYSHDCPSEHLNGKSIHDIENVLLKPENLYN
Test: Antagonist activity at human CGRP receptor expressed in human SK-N-MC cells assessed as inhibition of CGRP-stimulated cAMP production
Assign pIC50 to each entry below.
Worth noting: pIC50 values are minus log10 of concentrations stated in mol/L.

// Input: Cc1cc(CC(NC(=O)N2CCC(N3Cc4ccccc4NC3=O)CC2)c2nc(Br)c(Br)[nH]2)cc2cn[nH]c12 (racemic) . Output its pIC50 only.
8.32

// Input: Cc1cc(C[C@@H](NC(=O)N2CCC(N3Cc4cccc(F)c4NC3=O)CC2)C(=O)N2CCC(N3CCCCC3)CC2)cc2cn[nH]c12 . Output its pIC50 only.
10.59

// Input: Cc1cc(CC(NC(=O)N2CCC(N3Cc4ccccc4NC3=O)CC2)c2nccn2Cc2ccccc2F)cc2cn[nH]c12 (racemic) . Output its pIC50 only.
8.72

// Input: Cc1cc(CC(NC(=O)N2CCC(N3Cc4ccccc4NC3=O)CC2)c2nccn2Cc2cc(F)cc(F)c2)cc2cn[nH]c12 (racemic) . Output its pIC50 only.
9.41

// Input: Cc1cc(CC(NC(=O)N2CCC(N3Cc4ccccc4NC3=O)CC2)c2nccn2Cc2ccccn2)cc2cn[nH]c12 (racemic) . Output its pIC50 only.
8.80

// Input: Cc1cc(CC(NC(=O)N2CCC(N3Cc4ccccc4NC3=O)CC2)c2ncc(Br)[nH]2)cc2cn[nH]c12 (racemic) . Output its pIC50 only.
8.13

// Input: Cc1cc(CC(NC(=O)N2CCC(N3Cc4ccccc4NC3=O)CC2)c2nc(Br)cn2Cc2cc(F)cc(F)c2)cc2cn[nH]c12 (racemic) . Output its pIC50 only.
9.41

// Input: Cc1c[nH]c(C(Cc2cc(C)c3[nH]ncc3c2)NC(=O)N2CCC(N3Cc4ccccc4NC3=O)CC2)n1 (racemic) . Output its pIC50 only.
6.92

// Input: Cc1cc(Cn2ccnc2C(Cc2cc(C)c3[nH]ncc3c2)NC(=O)N2CCC(N3Cc4ccccc4NC3=O)CC2)ccn1 (racemic) . Output its pIC50 only.
9.89

// Input: Cc1cc(CC(NC(=O)N2CCC(N3Cc4ccccc4NC3=O)CC2)c2nccn2Cc2ccccc2)cc2cn[nH]c12 (racemic) . Output its pIC50 only.
9.11

// Input: Cc1cc(CC(NC(=O)N2CCC(N3Cc4ccccc4NC3=O)CC2)c2nccn2Cc2ccc(F)cc2)cc2cn[nH]c12 (racemic) . Output its pIC50 only.
9.01

// Input: Cc1cc(CC(NC(=O)N2CCC(N3Cc4ccccc4NC3=O)CC2)c2nccn2Cc2ccncc2)cc2cn[nH]c12 (racemic) . Output its pIC50 only.
9.08

// Input: Cc1cc(CC(NC(=O)N2CCC(N3Cc4ccccc4NC3=O)CC2)c2nccn2Cc2cccc(F)c2)cc2cn[nH]c12 (racemic) . Output its pIC50 only.
9.20

// Input: Cc1cc(CC(NC(=O)N2CCC(N3Cc4ccccc4NC3=O)CC2)c2nccn2C)cc2cn[nH]c12 (racemic) . Output its pIC50 only.
8.32

// Input: Cc1cc(CC(NC(=O)N2CCC(N3Cc4ccccc4NC3=O)CC2)c2nccn2Cc2cccnc2)cc2cn[nH]c12 (racemic) . Output its pIC50 only.
9.38

// Input: Cc1cc(Cn2ccnc2C(Cc2cc(C)c3[nH]ncc3c2)NC(=O)N2CCC(N3Cc4ccccc4NC3=O)CC2)cc(Cl)n1 (racemic) . Output its pIC50 only.
10.11

// Input: Cc1cc(CC(NC(=O)N2CCC(N3Cc4ccccc4NC3=O)CC2)c2nccn2CCc2ccccc2)cc2cn[nH]c12 (racemic) . Output its pIC50 only.
9.06

* * *

System: Liver microsomes
Experiment: Metabolic stability in rat liver microsomes assessed as compound remaining
Assay type: ADME, Microsome
metric.name: Stability (%)
Just the number please, in %, no unit attached.

// Input: Cc1cc(CC(OC(=O)N2CCC(c3cc4ccccc4[nH]c3=O)CC2)c2ncc3n2CCN(C2CCCCC2)C3)cc2cn[nH]c12 (racemic) . Output its Stability only.
30

// Input: Cc1cc(Cn2ccnc2C(Cc2cc(C)c3[nH]ncc3c2)NC(=O)N2CCC(N3Cc4ccccc4NC3=O)CC2)ccn1 (racemic) . Output its Stability only.
2

// Input: Cc1cc(CC(NC(=O)N2CCC(N3Cc4ccccc4NC3=O)CC2)c2ncc(C)n2Cc2cccc(F)c2)cc2cn[nH]c12 (racemic) . Output its Stability only.
87

// Input: Cc1cc(CC(OC(=O)N2CCC(c3cc4ccccc4[nH]c3=O)CC2)c2ncc3n2CCN(Cc2ccccc2)C3)cc2cn[nH]c12 (racemic) . Output its Stability only.
32

// Input: Cc1cc(Cn2ccnc2C(Cc2cc(C)c3[nH]ncc3c2)NC(=O)N2CCC(N3Cc4ccccc4NC3=O)CC2)cc(Cl)n1 (racemic) . Output its Stability only.
2

// Input: Cc1cc(CC(NC(=O)N2CCC(N3Cc4ccccc4NC3=O)CC2)c2nc(Br)cn2Cc2cc(F)cc(F)c2)cc2cn[nH]c12 (racemic) . Output its Stability only.
100

// Input: Cc1cc(CC(NC(=O)N2CCC(N3Cc4ccccc4NC3=O)CC2)c2nccn2Cc2cccnc2)cc2cn[nH]c12 (racemic) . Output its Stability only.
20

// Input: Cc1cc(CC(NC(=O)N2CCC(N3Cc4ccccc4NC3=O)CC2)c2nccn2Cc2cc(F)cc(F)c2)cc2cn[nH]c12 (racemic) . Output its Stability only.
78

// Input: Cc1cc(CC(NC(=O)N2CCC(N3Cc4ccccc4NC3=O)CC2)c2nccn2Cc2ccccn2)cc2cn[nH]c12 (racemic) . Output its Stability only.
1
